target: UniProt:P35439
assay-summary: Affinity for glycine site of N-methyl-D-aspartate glutamate receptor determined by displacement of tritium labeled selective glycine antagonist [3H]- SM-18400
pIC50: −log10 of the molar value.
parameter: pIC50

NCc1ccc(NC(=O)C[C@@H]2CCc3cc(Cl)cc4[nH]c(C(=O)O)c2c34)c(OCC(=O)O)c1 (stereo in doubt; 3a) :: 8.92
NCc1ccc(NC(=O)C[C@@H]2CCc3cc(Cl)cc4[nH]c(C(=O)O)c2c34)c(CC(=O)O)c1 :: 8.82
NCc1ccc(NC(=O)C[C@@H]2CCc3cc(Cl)cc4[nH]c(=O)c(=O)n2c34)c(OCC(=O)O)c1 :: 9.00
O=C(O)Cc1ccccc1NC(=O)C[C@@H]1CCc2cc(Cl)cc3[nH]c(C(=O)O)c1c23 :: 8.12
O=C(C[C@@H]1CCc2cc(Cl)cc3[nH]c(C(=O)O)c1c23)Nc1ccccc1 :: 7.72
NCc1ccc(NC(=O)C[C@@H]2CCc3cc(Cl)cc4[nH]c(C(=O)O)c2c34)cc1 :: 7.74
NCc1ccc(NC(=O)C[C@@H]2CCc3cc(Cl)cc4[nH]c(C(=O)O)c2c34)c(OCC(=O)O)c1 (stereo in doubt; 3b) :: 7.48
C[C@@H](C(=O)O)c1cc(CN)ccc1NC(=O)C[C@@H]1CCc2cc(Cl)cc3[nH]c(C(=O)O)c1c23 :: 8.57
C[C@H](C(=O)O)c1cc(CN)ccc1NC(=O)C[C@@H]1CCc2cc(Cl)cc3[nH]c(C(=O)O)c1c23 :: 7.54
